Target: T1, cynomolgus monkey SIRPγ-His monomer protein (cynomolgus monkey, UniProt Q9P1W8 29-359 (human entry), limits assumed)
T1 construct: also called Cyno SIRPγ; Cyno SIRPγ-His
T1 chain: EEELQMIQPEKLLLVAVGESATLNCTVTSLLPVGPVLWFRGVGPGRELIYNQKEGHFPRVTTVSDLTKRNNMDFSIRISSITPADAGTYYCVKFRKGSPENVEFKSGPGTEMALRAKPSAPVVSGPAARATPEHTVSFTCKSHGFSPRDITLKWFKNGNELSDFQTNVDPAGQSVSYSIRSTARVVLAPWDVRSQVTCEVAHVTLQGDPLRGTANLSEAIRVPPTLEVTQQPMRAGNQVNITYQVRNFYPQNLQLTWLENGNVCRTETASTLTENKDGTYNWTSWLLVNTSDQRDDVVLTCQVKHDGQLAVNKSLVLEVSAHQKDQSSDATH
Assay: BLI Octet, antibody on AHC, global 1:2 model
Consider the cut-off 0.05 µM. If the recorded Kd is strictly smaller, the label is satisfied; if not, the label is not satisfied.

Does this binder meet the criterion Kd < 0.05 µM? Antibody 84 (antibody, V domains shown) VH: QVQLVQSGAEVKKPGASVKVSCKASGYTFTSYYMHWVRQAPGQGLEWMGWINPNSGNAGFAQKFQGRVTMTRDTSTSTVYMELSSLRSEDTAVYYCARGPVYSYGPFDYWGQGTLVTVSS VL: DIQMTQSPSSLSASVGDRVTITCRASQGISTYLAWYQQKPGKAPKLLIYAASTLQSGVPSRFSGSGSGTDFTLTISSLQPEDFATYYCQQSHSAPITFGQGTKVEIK
satisfied

Item Antibody 90 (antibody, V domains shown) VH: QVQLVQSGAEVKKPGASVKVSCKASGYTFTSYYMHWVRQAPGQGLEWMGWMNPNSDNTGYAQKFQGRVTMTRDTSTSTVYMELSSLRSEDTAVYYCARVGVGYGYYYYGMDVWGQGTTVTVSS VL: DIQMTQSPSSLSASVGDRVTITCRAGQSIGDYLNWYQQKPGKAPKLLIYAASSLQSGVPSRFSGSGSGTDFTLTISSLQPEDFATYYCQQSYSTPWTFGQGTKVEIK : Kd beneath 0.05 µM, strictly?
not satisfied

Please check: Kd for Antibody 86 (antibody, V domains shown) VH: EVQLLESGGGLVQPGGSLRLSCAASGFTLGSYWMHWVRQAPGKGLEWVSLISWDGGSTYYADSVKGRFTISRDNSKNTLYLQMNSLRAEDTAVYYCAKGPWVGYSGYDLNYYYYGMDVWGQGTTVTVSS VL: DIQMTQSPSSLSASVGDRVTITCRASQDIRRALAWYQQKPGKAPKLLIYAASSLQSGVPSRFSGSGSGTDFTLTISSLQPEDFATYYCLQHNSYPPTFGQGTKLEIK , strictly under 0.05 µM or not?
satisfied

Quick check: Kd of Antibody 89 (antibody, V domains shown) VH: QVQLVQSGAEVKKPGASVKVSCKASGGTFSSYAISWVRQAPGQGLEWMGIINPSSSSTGYAQKFQGRVTMTRDTSTSTVYMELSSLRSEDTAVYYCARAGYYDSSGYYYSPYYGMDVWGQGTTVTVSS VL: EIVMTQSPATLSVSPGERATLSCRASQSISGSYLAWYQQKPGQAPRLLIYGASTRATGIPARFSGSGSGTEFTLTISSLQSEDFAVYYCQQYGSFPFTFGPGTKVDIK under 0.05 µM?
satisfied

Criterion: Kd strictly below 0.05 µM. Is it met by Antibody 96 (antibody, V domains shown) VH: QVQLVQSGAEVKKPGASVKVSCKASGYTFTRYDINWVRQAPGQGLEWMGWMNPNSGNTGYAQKLQGRVTMTRDTSTSTVYMELSSLRSEDTAVYYCARERVGYCSSTSCLHPLDYWGQGTLVTVSS VL: DIQMTQSPSSLSASVGDRVTITCRASQGIRNDLGWYQQKPGKAPKLLIYSASNLQSGVPSRFSGSGSGTDFTLTISSLQPEDFATYYCQQSYDVPLTFGGGTKVEIK ?
not satisfied

Say whether its Kd is strictly beneath 0.05 µM. Entry: Antibody 88 (antibody, V domains shown) VH: QVQLVQSGAEVKKPGASVKVSCKASGYTFTSHDINWVRQAPGQGLEWMGWMNANNGNAGYAQKFQGRVTMTRDTSTSTVYMELSSLRSEDTAVYYCAKDLSPSSSWSTYYYYYGMDVWGQGTMVTVSS VL: DIQMTQSPSSLSASVGDRVTITCRASQSISNLLAWYQQKPGKAPKLLIYAASSLQSGVPSRFSGSGSGTDFTLTISSLQPEDFATYYCQQSYSTPYTFGQGTKLEIK
not satisfied

Measured values drawn from patent US20240400677A1 for this set.
